Origin of measurements: patent US20240043427A1

target: CD73 (Homo sapiens (Human)); experiment: CD73 Biochemical IC50 Assay; conditions: CD73 0.3 nM, AMP 15 uM, 25 mM Tris pH 7.4, 5 mM MgCl2
Sequence (P21589 27-574): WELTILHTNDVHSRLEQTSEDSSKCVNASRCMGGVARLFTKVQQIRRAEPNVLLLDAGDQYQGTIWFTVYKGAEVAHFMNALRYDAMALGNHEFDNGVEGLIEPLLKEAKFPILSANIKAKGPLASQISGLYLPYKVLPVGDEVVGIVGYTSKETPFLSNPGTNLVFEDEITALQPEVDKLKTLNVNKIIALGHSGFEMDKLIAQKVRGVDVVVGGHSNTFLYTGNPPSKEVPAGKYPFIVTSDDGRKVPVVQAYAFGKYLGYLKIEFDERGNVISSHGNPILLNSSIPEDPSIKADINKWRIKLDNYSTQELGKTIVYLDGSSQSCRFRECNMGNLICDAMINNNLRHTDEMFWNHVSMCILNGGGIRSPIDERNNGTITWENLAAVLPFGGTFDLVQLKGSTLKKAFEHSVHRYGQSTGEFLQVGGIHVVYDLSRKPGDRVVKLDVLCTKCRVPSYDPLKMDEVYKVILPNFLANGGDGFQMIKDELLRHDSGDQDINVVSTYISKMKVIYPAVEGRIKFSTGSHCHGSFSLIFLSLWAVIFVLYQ
pIC50: −log10 of the molar value.
Each item that follows carries a reported pIC50.
Reported metric: pIC50

[
  {
    "Record smiles": "N#Cc1cnc2c(C3CCC(F)(F)CC3)cc(-c3c[nH]c(=O)[nH]c3=O)nn12",
    "Reported metric": "pIC50",
    "Recorded value": "< 5.60"
  },
  {
    "Record smiles": "O=c1[nH]cc(-c2cc(C3(C(F)(F)F)CC3)c3nccn3n2)c(=O)[nH]1",
    "Reported metric": "pIC50",
    "Recorded value": "< 5.60"
  },
  {
    "Record smiles": "O=c1[nH]cc(-c2cc(Cc3ccccc3)c3nccn3n2)c(=O)[nH]1",
    "Reported metric": "pIC50",
    "Recorded value": "< 5.60"
  }
]
